All figures here come from patent US8841413B2.

target: DPP IV (Homo sapiens, UniProt P27487); test: Stability against DPP IV enzyme; format: in vitro ADME; conditions: 2 μM, 37° C.; read-out: half-life (t1/2) with DPP-IV enzyme
Sequence (P27487 whole entry, species assumed): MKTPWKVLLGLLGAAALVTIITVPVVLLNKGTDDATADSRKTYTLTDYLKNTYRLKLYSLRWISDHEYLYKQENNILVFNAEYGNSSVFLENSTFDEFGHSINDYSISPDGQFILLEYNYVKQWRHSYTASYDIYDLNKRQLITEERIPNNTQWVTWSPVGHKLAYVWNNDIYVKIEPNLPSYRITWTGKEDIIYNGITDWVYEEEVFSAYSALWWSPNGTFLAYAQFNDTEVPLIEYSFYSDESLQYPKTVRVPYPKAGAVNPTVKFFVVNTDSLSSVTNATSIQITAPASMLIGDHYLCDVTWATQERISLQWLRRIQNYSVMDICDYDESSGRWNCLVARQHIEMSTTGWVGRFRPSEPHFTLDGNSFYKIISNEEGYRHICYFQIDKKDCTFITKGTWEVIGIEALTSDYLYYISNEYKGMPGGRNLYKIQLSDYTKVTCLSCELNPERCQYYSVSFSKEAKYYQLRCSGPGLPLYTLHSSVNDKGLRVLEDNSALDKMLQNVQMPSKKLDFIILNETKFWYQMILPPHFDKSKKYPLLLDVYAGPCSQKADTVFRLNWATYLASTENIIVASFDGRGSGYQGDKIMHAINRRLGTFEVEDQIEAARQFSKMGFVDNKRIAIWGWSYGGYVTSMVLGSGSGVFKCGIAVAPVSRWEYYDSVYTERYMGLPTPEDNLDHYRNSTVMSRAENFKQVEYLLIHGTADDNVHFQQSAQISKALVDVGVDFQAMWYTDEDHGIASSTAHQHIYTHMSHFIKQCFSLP
Provide the recorded half-life for the entries that follow.

// known answers, use as guide
{"MOLECULE": "CCc1cc(OC)ccc1-c1ccc(CC(NC(=O)[C@H](CC(=O)O)NC(=O)[C@H](CO)NC(=O)[C@@H](NC(=O)[C@H](Cc2ccccc2)NC(=O)[C@@H](NC(=O)CNC(=O)[C@H](CCC(N)=O)NC(=O)C(C)(C)NC(=O)[C@@H](N)Cc2c[nH]cn2)[C@@H](C)O)[C@@H](C)O)C(=O)NC(Cc2ccc(-c3ccccc3F)cc2)C(N)=O)cc1 (single isomer, unassigned) [compound 15]", "MEASURED TARGET": "DPP IV (Homo sapiens, UniProt P27487)", "ASSAY VALUE": "> 24 h"}
{"MOLECULE": "CCc1cc(OC)ccc1-c1ccc(CC(NC(=O)[C@H](CC(=O)O)NC(=O)[C@H](CO)NC(=O)[C@@H](NC(=O)C(C)(Cc2ccccc2F)NC(=O)[C@@H](NC(=O)CNC(=O)[C@H](CCC(N)=O)NC(=O)C(C)(C)NC(=O)[C@@H](N)Cc2c[nH]cn2)[C@@H](C)O)[C@@H](C)O)C(=O)NC(Cc2ccc(-c3ccccc3F)cc2)C(N)=O)cc1 (single isomer, unassigned) [compound 31]", "MEASURED TARGET": "DPP IV (Homo sapiens, UniProt P27487)", "ASSAY VALUE": "> 24 h"}

Field: next molecule
# input Query: half-life; subject: CCc1cc(OC)ccc1-c1ccc(CC(NC(=O)[C@H](CC(=O)O)NC(=O)[C@H](CO)NC(=O)[C@@H](NC(=O)C(C)(Cc2ccccc2F)NC(=O)[C@@H](NC(=O)CNC(=O)[C@H](CCC(N)=O)NC(=O)C(C)(C)NC(=O)[C@@H](N)Cc2c[nH]cn2)[C@@H](C)O)[C@@H](C)O)C(=O)NC(Cc2ccc(-c3ccccc3C)cc2)C(N)=O)cc1 (single isomer, unassigned) [compound 29]
# output > 24 h
